biological target: Steroidogenic factor 1 (Homo sapiens); assay: Agonist activity at recombinant full length SF1 (unknown origin) transfected in human HeLa cells incubated for 24 hrs by renilla luciferase reporter gene assay; format: cell-based
Calls of active or inactive are those of the source. No cut-off for these calls is given here.
Could you please pick one outcome from this set? active, inactive

Reference set, count: 3
| compound | groupLabel |
| --- | --- |
| C=C(c1ccccc1)[C@@]12CC[C@H](OS(N)(=O)=O)[C@@H]1CC(CCCCCC)=C2c1ccccc1 (racemic) | active |
| C=C(c1ccccc1)[C@@]12CC[C@@H](O)[C@@H]1CC(CCCCCC)=C2c1ccccc1 | active |
| C=C(c1ccccc1)[C@@]12CC[C@H](NC(C)=O)[C@@H]1CC(CCCCCC)=C2c1ccccc1 (racemic) | inactive |

Q: What classification did C=C(c1ccccc1)[C@@]12CC[C@H](NS(N)(=O)=O)[C@@H]1CC(CCCCCC)=C2c1ccccc1 (racemic) end up with in this test?
Ans: active

---

molecular target: Nuclear receptor subfamily 5 group A member 2 (Homo sapiens)
measuredEndpoint: ΔTm

| molecule | ΔTm |
| --- | --- |
| C=C(c1ccccc1)[C@@]12CC[C@H](n3ccnn3)[C@@H]1CC(CCCCCC)=C2c1ccccc1 (racemic) | 3 to 8 °C |
| C=C(c1ccccc1)[C@@]12CC[C@H](OS(=O)(=O)NC(N)=O)[C@@H]1CC(CCCCCC)=C2c1ccccc1 (racemic) | 3 to 8 °C |
| C=C(c1ccccc1)[C@@]12CC[C@@H](OS(N)(=O)=O)[C@@H]1CC(CCCCCC)=C2c1ccccc1 (racemic) | 3 to 8 °C |

Proceeding to the next molecule to report its ΔTm.
Q: Enter reported ΔTm observed with Nuclear receptor subfamily 5 group A member 2 (Homo sapiens) for C=C(c1ccccc1)[C@@]12CC[C@H](OS(N)(=O)=O)[C@@H]1CC(CCCCCC)=C2c1ccccc1 (racemic)
Ans: 3 to 8 °C
